// provenance: the Human Domainome abundance scans (Beltran et al. 2025)

B1: Advillin, residues 785 to 819; numbered along this chain, O75366 (parent)
chain: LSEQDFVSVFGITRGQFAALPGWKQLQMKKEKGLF

Variants of: B1
Assay: abundance fitness (aPCA) (normalised: wild type 0, dead -1); higher = more abundant; growth selection in yeast, the domain comes from the species named
Settings: Homo sapiens
readout kind: abundance fitness
Write the value as a bare number.

| primary sequence | readout kind | meas value |
| --- | --- | --- |
| LSEQDFVSVFGITRGQFATLPGWKQLQMKKEKGLF | abundance fitness | -0.254 |

For this variant ( `LSEQCFVSVFGITRGQFAALPGWKQLQMKKEKGLF` ), measured abundance fitness is -1.17

For this variant ( `LSEQDFVSVFGITRGQWAALPGWKQLQMKKEKGLF` ), measured abundance fitness is -0.441

For this variant ( `LSEQDFVSVFGITRGQFAMLPGWKQLQMKKEKGLF` ), measured abundance fitness is -0.174

For this variant ( `LSEQDFVSVFGIARGQFAALPGWKQLQMKKEKGLF` ), measured abundance fitness is -0.397
